- Tested On: T1, Biotin-huCGRPaSA (human, not fully specified; biotin (position not given))
- T1 construct: exact construct ('aSA') not explained; also called Biotin CGRPaSA; full-length (1-37) CGRP
- T1 peptide: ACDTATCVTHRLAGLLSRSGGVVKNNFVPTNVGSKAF
- Method Summary: ELISA, supernatant; relative to chimeric C245
Measured Metric: Relative binding activity, %
Numeric answer plus unit only.

Give a short answer stating reported Relative binding activity, % for hu75 (antibody, V domains shown, 1F5 HC-4/2B8 LC2-2) VH: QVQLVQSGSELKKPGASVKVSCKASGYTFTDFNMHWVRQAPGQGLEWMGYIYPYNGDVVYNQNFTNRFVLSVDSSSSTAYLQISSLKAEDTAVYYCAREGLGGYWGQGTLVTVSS VL: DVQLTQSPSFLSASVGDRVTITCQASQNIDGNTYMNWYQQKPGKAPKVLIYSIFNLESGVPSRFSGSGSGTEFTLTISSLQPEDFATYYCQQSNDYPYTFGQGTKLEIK .
84%

Give a short answer stating reported Relative binding activity, % for hu94 (antibody, V domains shown, 2A2 HC-1/1A2 LC2-3) VH: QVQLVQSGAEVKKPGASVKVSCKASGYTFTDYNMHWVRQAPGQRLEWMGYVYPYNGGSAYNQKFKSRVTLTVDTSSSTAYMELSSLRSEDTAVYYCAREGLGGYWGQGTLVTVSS VL: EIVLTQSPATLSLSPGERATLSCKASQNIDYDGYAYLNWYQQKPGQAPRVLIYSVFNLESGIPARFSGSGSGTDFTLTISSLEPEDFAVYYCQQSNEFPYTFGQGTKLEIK .
48%

Give a short answer stating reported Relative binding activity, % for hu76 (antibody, V domains shown, 1F5 HC-4/3E5 LC-1) VH: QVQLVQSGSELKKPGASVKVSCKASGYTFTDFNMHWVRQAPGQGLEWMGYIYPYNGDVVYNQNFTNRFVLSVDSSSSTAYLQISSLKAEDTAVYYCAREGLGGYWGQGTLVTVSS VL: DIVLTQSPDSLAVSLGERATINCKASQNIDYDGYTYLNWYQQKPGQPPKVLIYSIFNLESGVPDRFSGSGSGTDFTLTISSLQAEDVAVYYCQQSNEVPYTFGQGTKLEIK .
112%

Give a short answer stating reported Relative binding activity, % for hu36 (antibody, V domains shown, 1F5 HC-1/2B8 LC2-2) VH: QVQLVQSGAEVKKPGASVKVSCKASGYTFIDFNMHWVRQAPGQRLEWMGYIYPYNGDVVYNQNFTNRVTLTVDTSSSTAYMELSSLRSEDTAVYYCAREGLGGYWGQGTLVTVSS VL: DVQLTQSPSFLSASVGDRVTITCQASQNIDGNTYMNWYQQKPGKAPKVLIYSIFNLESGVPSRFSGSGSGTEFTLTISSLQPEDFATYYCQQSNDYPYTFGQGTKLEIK .
40%

Give a short answer stating reported Relative binding activity, % for hu117 (antibody, V domains shown, 2B8 HC1-1/3H10 LC2-2) VH: QVQLVQSGAEVKKPGASVKVSCKASGYTFTDYNMHWVRQAPGQGLEWMGNIYPYNGGTVYNQKFNNRVTLTVDTSSSTAYMELSRLRSDDTAVYYCAREGLGGYWGQGTLVTVSS VL: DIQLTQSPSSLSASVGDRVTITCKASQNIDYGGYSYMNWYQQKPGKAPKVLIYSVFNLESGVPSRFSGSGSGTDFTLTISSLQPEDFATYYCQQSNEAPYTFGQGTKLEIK .
36%
